// data source = ChEMBL document CHEMBL1201862

- system-under-test: UniProt P49327
- Sequence (P49327 whole entry): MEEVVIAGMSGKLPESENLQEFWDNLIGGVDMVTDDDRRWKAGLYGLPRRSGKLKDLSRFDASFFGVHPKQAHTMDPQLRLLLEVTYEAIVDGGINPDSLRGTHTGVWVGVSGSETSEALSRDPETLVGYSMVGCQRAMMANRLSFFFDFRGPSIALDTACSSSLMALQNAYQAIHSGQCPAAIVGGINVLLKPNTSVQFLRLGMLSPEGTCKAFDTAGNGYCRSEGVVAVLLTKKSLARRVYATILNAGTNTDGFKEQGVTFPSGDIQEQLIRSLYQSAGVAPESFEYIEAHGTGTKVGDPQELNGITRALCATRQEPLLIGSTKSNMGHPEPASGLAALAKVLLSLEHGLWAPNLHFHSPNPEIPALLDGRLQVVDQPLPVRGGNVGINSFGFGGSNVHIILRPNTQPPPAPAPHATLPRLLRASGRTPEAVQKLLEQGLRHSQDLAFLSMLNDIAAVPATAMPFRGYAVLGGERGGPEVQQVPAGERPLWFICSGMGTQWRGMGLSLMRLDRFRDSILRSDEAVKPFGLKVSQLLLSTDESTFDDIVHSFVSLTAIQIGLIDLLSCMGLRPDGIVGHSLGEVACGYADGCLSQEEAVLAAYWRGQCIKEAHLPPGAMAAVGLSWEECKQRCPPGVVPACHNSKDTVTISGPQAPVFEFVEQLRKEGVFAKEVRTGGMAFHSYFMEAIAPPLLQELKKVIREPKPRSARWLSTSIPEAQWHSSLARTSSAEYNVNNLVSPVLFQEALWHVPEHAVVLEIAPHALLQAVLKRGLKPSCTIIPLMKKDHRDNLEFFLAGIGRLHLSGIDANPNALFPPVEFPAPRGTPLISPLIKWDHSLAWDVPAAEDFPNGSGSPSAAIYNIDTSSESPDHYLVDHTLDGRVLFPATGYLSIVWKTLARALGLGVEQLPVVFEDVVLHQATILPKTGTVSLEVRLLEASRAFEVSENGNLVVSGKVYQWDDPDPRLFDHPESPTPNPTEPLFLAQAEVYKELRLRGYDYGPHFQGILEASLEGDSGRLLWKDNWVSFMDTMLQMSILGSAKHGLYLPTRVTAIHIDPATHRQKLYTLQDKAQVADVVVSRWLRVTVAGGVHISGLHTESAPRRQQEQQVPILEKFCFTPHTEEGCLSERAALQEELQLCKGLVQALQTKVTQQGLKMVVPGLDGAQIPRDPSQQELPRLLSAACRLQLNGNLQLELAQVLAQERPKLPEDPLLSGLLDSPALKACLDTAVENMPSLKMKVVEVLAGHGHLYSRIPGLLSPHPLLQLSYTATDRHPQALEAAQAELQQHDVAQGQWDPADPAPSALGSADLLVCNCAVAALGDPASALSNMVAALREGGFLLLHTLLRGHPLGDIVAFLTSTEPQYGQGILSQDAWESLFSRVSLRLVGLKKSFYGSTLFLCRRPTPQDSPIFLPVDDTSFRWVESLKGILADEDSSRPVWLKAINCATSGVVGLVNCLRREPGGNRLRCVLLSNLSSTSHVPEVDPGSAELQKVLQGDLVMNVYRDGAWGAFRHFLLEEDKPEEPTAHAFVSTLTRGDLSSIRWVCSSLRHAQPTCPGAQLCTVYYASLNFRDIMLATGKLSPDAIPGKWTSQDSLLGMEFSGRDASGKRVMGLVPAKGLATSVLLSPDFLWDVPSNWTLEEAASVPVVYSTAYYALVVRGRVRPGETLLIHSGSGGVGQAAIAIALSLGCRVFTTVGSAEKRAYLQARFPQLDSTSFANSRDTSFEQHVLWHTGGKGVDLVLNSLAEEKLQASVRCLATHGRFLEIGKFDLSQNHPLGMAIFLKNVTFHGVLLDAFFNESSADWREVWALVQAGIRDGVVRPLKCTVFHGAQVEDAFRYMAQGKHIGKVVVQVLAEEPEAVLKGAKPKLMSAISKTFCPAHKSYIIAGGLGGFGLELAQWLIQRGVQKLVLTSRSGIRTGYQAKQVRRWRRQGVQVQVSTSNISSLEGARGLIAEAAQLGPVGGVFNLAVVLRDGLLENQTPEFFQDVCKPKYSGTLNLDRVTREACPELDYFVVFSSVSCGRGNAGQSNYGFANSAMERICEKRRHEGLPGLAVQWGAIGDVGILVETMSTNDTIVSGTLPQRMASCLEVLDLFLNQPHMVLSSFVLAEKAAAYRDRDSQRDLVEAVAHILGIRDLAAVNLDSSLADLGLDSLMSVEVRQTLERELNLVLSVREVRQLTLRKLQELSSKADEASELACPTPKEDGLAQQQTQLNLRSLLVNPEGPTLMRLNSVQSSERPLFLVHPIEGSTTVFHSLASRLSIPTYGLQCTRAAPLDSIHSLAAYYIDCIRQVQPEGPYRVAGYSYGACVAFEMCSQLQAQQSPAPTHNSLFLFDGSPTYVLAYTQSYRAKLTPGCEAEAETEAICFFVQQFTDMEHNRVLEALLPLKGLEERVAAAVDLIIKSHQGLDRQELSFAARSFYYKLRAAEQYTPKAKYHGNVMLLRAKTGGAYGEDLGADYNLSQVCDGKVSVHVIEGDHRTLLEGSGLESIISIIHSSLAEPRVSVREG
- measurement-notes: inhibition of human FAS-TE enzyme activity – biochemical, kinetic fluorescence intensity, dose response (AID 624326);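 also: rate of fluorescence rise from hydrolysis of a fluorogenic O-methyl fluorescein ester substrate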
- Type: functional
Activity calls are given as the source filed them.
experimental-endpoint: IC50

For orientation, consider the following solved cases.
O=C(Sc1nnc(-c2ccccc2)o1)N1c2ccccc2Sc2ccccc21 = 16.3 µM (active)
O=[N+]([O-])c1cccc(CN2CC=C(c3ccc(F)cc3)CC2)c1 = 9.86 µM (active)
O=C(Nc1nnc(SCc2ccccc2Cl)s1)c1cccc([N+](=O)[O-])c1 = 11 µM (active)
CCN1Cc2c(/C=C/c3ccccc3)nc3ccc(OC)cc3c2N(c2cccc(Cl)c2)C1 = 3.61 µM (active)
O=C(OCC(=O)N1CCN(c2ccccc2)CC1)c1cccc([N+](=O)[O-])c1 = 11.9 µM (active)

// below: IC50 requested for another molecule
Task: Return IC50 for the following molecule: COc1ccc([N+](=O)[O-])cc1C(=O)NCCOc1ccc(Cl)cc1
Result: 7.34 µM (active)

###

- measurement-notes: nonselective StAR promoter luciferase inhibitors – cell-based, luminescence, luciferase reporter, counter-screen for LRH-1 inverse agonist project, dose response (AID 651969)
- Format: functional
Calls of active or inactive are those of the source.
Entries and their IC50

In the examples that follow, each entry is paired with its recorded IC50.
Cc1nnc(SCC(=O)Nc2ccc(Br)cc2)n(N)c1=O = 35.9 µM (inactive)
CC(=O)Nc1cc(-c2cccc(F)c2)cn2c(-c3ccc(S(C)(=O)=O)cc3)cnc12 = 31.1 µM (inactive)
Cc1ccc(NC(=O)CSc2sc3c(O)cc(O)nc3c2C#N)c(F)c1 = 35.9 µM (inactive)

Task: Please supply the value of reported IC50 for the item CCOc1cc(/C=N/n2nnnc2N)ccc1OCc1c(C)no[n+]1[O-]
Result: 35.9 µM (inactive)

###

// reported EC50 for each item listed
- measurement-notes: Luminescence Cell-Based Dose Response HTS to Identify Inhibitors of 5'UTR Stem-Loop Driven Prion Protein mRNA Translation in H4 Neuroglioblastoma Cells. [Related pubchem assays: 1827 (Project Summary), 1813 (Primary HTS)]
- Format: functional
Calls of active or inactive are those of the source.

Cc1cnc(NC(=O)COc2ccccc2Cl)s1 = 0.491 µM (active)
CCOC(=O)c1cnc(-n2nc(C)cc2C)nc1NNc1nc(-c2ccccc2)cc(-c2ccccc2)n1 = 12.6 µM (active)
Cc1cc(C)c(S(=O)(=O)Nc2ccc3c4c(cccc24)CC3)c(C)c1 = 9.52 µM (active)
CCc1cc(=O)oc2cc(OC(C)C(=O)NCC(O)c3ccccc3)c(Cl)cc12 (configuration not stated) = > 120 µM (not active)
Cc1nc(Nc2nc(O)c3c(n2)CCC3)nc2ccccc12 = > 120 µM (not active)

Task: Give the measured EC50 for COc1cc(OC)c(NC2=CC(=O)C(=O)c3ccccc32)cc1Cl
Result: 3.7 µM (active)

Task: Please report the measured EC50 for C=CCNc1nc(N)c([N+](=O)[O-])c(Nc2ccccc2OC)n1
Result: 11.7 µM (active)

###

- system-under-test: Glucose-6-phosphate 1-dehydrogenase (Homo sapiens, UniProt P11413)
- Sequence (P11413 whole entry): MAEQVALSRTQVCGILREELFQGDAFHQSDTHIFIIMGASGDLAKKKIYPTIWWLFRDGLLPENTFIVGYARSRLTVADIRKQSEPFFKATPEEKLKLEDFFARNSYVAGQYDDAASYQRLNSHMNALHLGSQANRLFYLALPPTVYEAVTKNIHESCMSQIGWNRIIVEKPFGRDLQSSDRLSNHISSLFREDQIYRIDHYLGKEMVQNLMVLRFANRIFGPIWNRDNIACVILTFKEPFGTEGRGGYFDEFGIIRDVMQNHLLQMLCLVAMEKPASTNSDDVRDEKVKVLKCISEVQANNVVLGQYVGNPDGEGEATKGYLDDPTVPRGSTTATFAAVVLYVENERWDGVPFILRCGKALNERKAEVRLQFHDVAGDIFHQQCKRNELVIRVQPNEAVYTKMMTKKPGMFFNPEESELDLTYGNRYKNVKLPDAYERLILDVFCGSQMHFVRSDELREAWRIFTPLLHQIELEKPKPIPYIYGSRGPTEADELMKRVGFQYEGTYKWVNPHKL
- measurement-notes: inhibition of Homo sapiens G6PD, dose series – biochemical, fluorescence, selectivity assay for P. falciparum G6PD inhibitor project, dose response (AID 504792)
- Assay type: functional
Calls of active or inactive are those of the source.
Log the outcome using a class from TRUE (active), FALSE (inactive)

// below: answered compounds
COc1cc(CNc2ccc3[nH]c(O)nc3c2)ccc1OCc1ccccc1 = FALSE
Cc1nc2c(o1)C(=O)c1ccccc1C2=Nc1ccccc1 = FALSE
O=c1c2ccccc2sn1-c1ccc(Cl)cc1Cl = TRUE
Cc1cccc(C2(c3cccc(C)c3)CC2C(=O)Nc2ccc([N+](=O)[O-])cc2O)c1 (configuration not stated) = FALSE

Task: What is the recorded call for this compound in the test? C/N=c1/nc(-c2ccccc2)n(-c2ccccc2)s1
Result: TRUE

Task: Check the results log: what was the call for Cc1ccc(CNc2ccc(O)cc2)cc1 ?
Result: FALSE

Task: Dear all, I need the recorded test outcome for COC1=C(OC)C(=O)C(Sc2ccc3ccccc3c2)=CC1=O , thank you.
Result: TRUE
